# EXPERIMENTAL PROTOCOL: protein stability index of a GFP-peptide fusion (yeast GPS) (PSI 1-4); higher = more stable; sorted into four equal gates, so the index is relative within each strain
# CONDITION INFO: pdr5∆
Class y: protein stability index at least 3. Class n: protein stability index below 3.

[[record]]
chain_sequence = "YKAISAQADKQDISSST [FAS2]"
class_name = "n"


Ask: // inclusive: protein stability index at least 3? input: GGLRPFGVSFIYAGYDD [PRE9]
Result: n

Ask: Exam item: decide whether the reported protein stability index for NDTISEDILQGIFNLLN [NUT1] is at least 3.
Result: n

---

The following sequences are listed with their measured protein stability index values.
# EXPERIMENTAL PROTOCOL: protein stability index of a GFP-peptide fusion (yeast GPS) (PSI 1-4); higher = more stable; sorted into four equal gates, so the index is relative within each strain
# CONDITION INFO: pdr5∆
// keep it numeric: no unit symbol after the value

[[record]]
chain_sequence = "VMSIESLVEVVFYRGMT [FAS1]"
quantitative_result = 2.12

[[record]]
chain_sequence = "SSLASQDVDFYKNLDRG [RRP6]"
quantitative_result = 1.37

[[record]]
chain_sequence = "DVLHPNRANVSKDELRE [RPS24A]"
quantitative_result = 3.29

[[record]]
chain_sequence = "EAKSFQDEAELVEEKTP [RPC82]"
quantitative_result = 3.46

[[record]]
chain_sequence = "IFINYKQTADWLAEKFQ [PRP28]"
quantitative_result = 1.93

[[record]]
chain_sequence = "LPILPIQRLRLLREKQR [YOR098C/NUP1]"
quantitative_result = 1.55

[[record]]
chain_sequence = "QQQDQPEQSEQPEQHQD [RPN10]"
quantitative_result = 3.12

[[record]]
chain_sequence = "VEVKDASLVDYVQVRQP [RPS5]"
quantitative_result = 3.41


Ask: Query (sequence): AKNKSTRINGLNSNNSI [REC8] ; field requested: protein stability index
Result: 3.15

Ask: Item PKYIDELKTRDATNTSY [SWP82] has what recorded protein stability index?
Result: 3.12

---

A collection of sequences and their measured protein stability index
# EXPERIMENTAL PROTOCOL: protein stability index of a GFP-peptide fusion (yeast GPS) (PSI 1-4); higher = more stable; sorted into four equal gates, so the index is relative within each strain
# CONDITION INFO: ubr1∆

[[record]]
chain_sequence = "LDISVFLLEKAGERKIP [TAF14]"
result = 2.16


Ask: Suppose we examine the sequence KFQETLLRQKIEQCKHP [ISW2] ; what protein stability index value has been reported?
Result: 1.21

Ask: Fill in the blank: the reported protein stability index of NKELPINHTILGKLQDV [RPN8] is ____.
Result: 2.67

Ask: Requested field: protein stability index. Item: PPPAPHNLHPQIGQVPL [SNF5]
Result: 3.01

Ask: // returns reported protein stability index for input NGSEKVLIAQERSAGNI [RPB2]
Result: 3.06

Ask: Which value of protein stability index has been reported for SVDITGGPWFTDGELDI [RPC34] in the records?
Result: 3.18

Ask: Given QPAKEKGVTEKDAVDYS [RRP6] , state its recorded protein stability index.
Result: 3.42

Ask: # protein stability index lookup, item MGRMHSAGKGISSSAIP [RPS13]
Result: 2.88

Ask: // returns reported protein stability index for input IADELMKLDDSSKTRNV [ITC1]
Result: 2.78

---

Collected protein stability index values appear next to each entry.
# EXPERIMENTAL PROTOCOL: protein stability index of a GFP-peptide fusion (yeast GPS) (PSI 1-4); higher = more stable; sorted into four equal gates, so the index is relative within each strain
# CONDITION INFO: pdr5∆
Give the figure only, with no unit attached.

Solved cases below.
[[record]]
chain_sequence = "SLEENAMSTVTLGVVGK [SKI6]"
quantitative_result = 3.21

[[record]]
chain_sequence = "SAGQPNLLLSASRDKTL [ASC1]"
quantitative_result = 2.77

[[record]]
chain_sequence = "FEIDDEHRIRVFFDKRI [RPS6A]"
quantitative_result = 3.02

[[record]]
chain_sequence = "FDEGTTLLSPKDNGMLI [RPO21]"
quantitative_result = 2.45

[[record]]
chain_sequence = "VTVFLFMLILALFVFYS [COB]"
quantitative_result = 1.8

[[record]]
chain_sequence = "ISSRTYGQRAVLKFAAH [RPS0B]"
quantitative_result = 2.22


Ask: Which protein stability index value belongs to ANFGEILEDFRVIKDFK [YMR153W/NUP53] ?
Result: 3.4

Ask: Fill in: protein stability index of ADINSNRLSNPQKNLLL [YOR098C/NUP1] is ___
Result: 3

Ask: Please report the recorded protein stability index for SGITGECLQAYIFFGPI [RET1] .
Result: 2.72

---

# EXPERIMENTAL PROTOCOL: protein stability index of a GFP-peptide fusion (yeast GPS) (PSI 1-4); higher = more stable; sorted into four equal gates, so the index is relative within each strain
# CONDITION INFO: pdr5∆
TEST READOUT: protein stability index
Please reply with the number alone, leaving off any unit.

Ask: Requested read-out: protein stability index. Entry: AQLTLKRCKHFELGGEK [RPL42A]
Result: 2.46

Ask: Would you mind telling me what protein stability index value was observed for EPQGAVTHMDQIFVRGS [SMD3] ?
Result: 2.77

Ask: Give the measured protein stability index of AETLAEELINAAKGSST [RPS5] .
Result: 2.51

---

Measured protein stability index of individual entries
# EXPERIMENTAL PROTOCOL: protein stability index of a GFP-peptide fusion (yeast GPS) (PSI 1-4); higher = more stable; sorted into four equal gates, so the index is relative within each strain
# CONDITION INFO: ubr1∆
Reply with the value as a number alone.

// known answers, use as guide
[[record]]
chain_sequence = "APLKHGVGILYKGMASN [BRR2]"
quantitative_result = 1.3

[[record]]
chain_sequence = "SKLPDPERWLPLRDRST [SRP72]"
quantitative_result = 2.46

[[record]]
chain_sequence = "SVAEVFQKAQGSYAGHR [YCG1]"
quantitative_result = 1.5


Ask: Requested field: protein stability index. Item: YENKDNLTAGIIVAGYD [PRE3]
Result: 2.78

Ask: Requested field: protein stability index. Item: DSKKIKVDSPDDPFMTK [GAL11]
Result: 2.82

Ask: Query: protein stability index; subject: SDLGTVVFDSNEAPPKT [YMR153W/NUP53]
Result: 2.58

Ask: Query (sequence): KALKTNINFASGVKNDI [CDC53] ; field requested: protein stability index
Result: 3.04

---

Each entry below carries its reported protein stability index.
# EXPERIMENTAL PROTOCOL: protein stability index of a GFP-peptide fusion (yeast GPS) (PSI 1-4); higher = more stable; sorted into four equal gates, so the index is relative within each strain
# CONDITION INFO: san1∆

[[record]]
chain_sequence = "KVVNFWLLHNGFSTGIG [RPO21]"
result = 2.51


Ask: GET /values?readout=protein stability index&item= VTAEDFKQAKERVMKNK [RPT2]
Result: 3.52

Ask: I'd like to know its protein stability index. The sequence in question is NGDKKVDIYSLPLISTD [YMR129W/POM152]
Result: 2.88

Ask: Recorded protein stability index of TEDQKVTTNINWRSFNA [SRP68] , please.
Result: 3.1

Ask: May I ask what protein stability index has been recorded for RAPQQSVLQLFQSVQLN [SMC2] ?
Result: 2.24

Ask: Consider the sequence shown here: AHCILGIGGDHAKFSPV [RPC40] What is its recorded protein stability index?
Result: 2.41

Ask: Consider the sequence LLRRLKKDVEKELPDKV [SNF2] and give its measured protein stability index.
Result: 3.36

Ask: Query (sequence): REGLIDTAVKTAETGYI [RPO21] ; field requested: protein stability index
Result: 1.23

Ask: # lookup: protein stability index of KRKKEANEEPNTENVES [ITC1]
Result: 2.78

Ask: // returns reported protein stability index for input ILSGFHNAGPVAGAGAA [RPP1B]
Result: 2.74

Ask: Field request: protein stability index | item: KILEQFEYVLYPSKTLK [FAS2]
Result: 2.97

Ask: Name the recorded protein stability index for LFGMCESLYEPNLEPED [PUP3] .
Result: 3.32

Ask: Which protein stability index reading was recorded for the sequence SEIKQQINKAQILENYN [YJL039C/NUP192] ?
Result: 2.73

Ask: Requested field: protein stability index. Item: SRYILFEIIFPPTDTNV [POP5]
Result: 1.53

Ask: Please look up its protein stability index: SDLGTVVFDSNEAPPKT [YMR153W/NUP53]
Result: 2.6

Ask: Give the measured protein stability index of RHFWGLRVRGQHTKTTG [RPS18A] .
Result: 1.77

Ask: Please look up its protein stability index: NVLLLDSNGDFNEDQLF [RRP46]
Result: 3.32
